assayed_system: Tyrosine-protein kinase ZAP-70 (Homo sapiens, UniProt P43403)
Sequence (P43403 whole entry): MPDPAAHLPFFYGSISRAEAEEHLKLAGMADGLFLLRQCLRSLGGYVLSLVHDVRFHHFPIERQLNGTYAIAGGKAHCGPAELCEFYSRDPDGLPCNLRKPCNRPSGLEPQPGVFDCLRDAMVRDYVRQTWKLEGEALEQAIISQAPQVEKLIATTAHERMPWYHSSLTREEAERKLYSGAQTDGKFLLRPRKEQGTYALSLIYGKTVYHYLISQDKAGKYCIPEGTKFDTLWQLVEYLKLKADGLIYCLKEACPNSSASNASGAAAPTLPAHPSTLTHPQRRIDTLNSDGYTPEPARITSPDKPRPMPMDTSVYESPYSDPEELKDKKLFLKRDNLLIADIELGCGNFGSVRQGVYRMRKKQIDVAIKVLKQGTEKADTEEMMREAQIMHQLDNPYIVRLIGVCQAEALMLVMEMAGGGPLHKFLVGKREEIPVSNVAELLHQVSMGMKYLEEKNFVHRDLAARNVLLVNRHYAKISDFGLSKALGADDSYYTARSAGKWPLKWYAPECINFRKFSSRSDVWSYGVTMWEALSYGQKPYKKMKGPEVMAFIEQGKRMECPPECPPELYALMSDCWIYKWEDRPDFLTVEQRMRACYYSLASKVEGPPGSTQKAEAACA
Record set: IC50 | Tyrosine-protein kinase ZAP-70 (Homo sapiens, UniProt P43403) | literature, multiple sources.
One number for each entry, in µM.

Take a look at these entries with their results.
substance_smiles=N[C@H]1CCCC[C@H]1Nc1cc2nc[nH]c(=O)c2c(Nc2cccc3c(Cl)c[nH]c23)n1 meas_value=0.815
substance_smiles=CC(=O)N[C@@H](Cc1ccc(OP(=O)(O)O)cc1)C(=O)NCc1nc(Cc2ccc(C(F)(F)F)cc2)no1 meas_value=128
substance_smiles=O=C1Nc2ccccc2/C1=C(\c1ccccc1)c1nc2ccccc2[nH]1 meas_value=26

Turning to the following compound.
In plain terms, `Cc1nn(-c2ccnc(Nc3ccc4c(c3)c(Cl)c(C)n4C)n2)cc1CN1CC[C@@H](O)C1` has a documented IC50 of 73.4

###

Multi-source literature compilation: pIC50 on Tyrosine-protein kinase ZAP-70 (Homo sapiens).
assayed_system: Tyrosine-protein kinase ZAP-70 (Homo sapiens)
Sequence (P43403 whole entry): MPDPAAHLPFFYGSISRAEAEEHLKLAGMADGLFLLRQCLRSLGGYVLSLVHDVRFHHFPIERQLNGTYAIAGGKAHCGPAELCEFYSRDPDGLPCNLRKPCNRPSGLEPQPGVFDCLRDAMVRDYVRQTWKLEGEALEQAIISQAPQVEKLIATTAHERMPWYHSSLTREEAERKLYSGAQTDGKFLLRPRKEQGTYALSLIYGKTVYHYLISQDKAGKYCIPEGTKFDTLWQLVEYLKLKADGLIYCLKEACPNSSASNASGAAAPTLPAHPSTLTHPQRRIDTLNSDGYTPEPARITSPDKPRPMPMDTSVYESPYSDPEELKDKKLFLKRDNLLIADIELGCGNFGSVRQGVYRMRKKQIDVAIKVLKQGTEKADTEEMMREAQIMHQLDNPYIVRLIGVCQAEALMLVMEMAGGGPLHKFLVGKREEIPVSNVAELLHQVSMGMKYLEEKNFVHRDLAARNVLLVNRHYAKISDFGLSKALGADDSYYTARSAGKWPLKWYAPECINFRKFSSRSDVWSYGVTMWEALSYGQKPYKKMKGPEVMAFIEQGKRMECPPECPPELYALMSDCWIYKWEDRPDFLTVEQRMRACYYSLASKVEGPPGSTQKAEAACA
Answers are plain numbers, as −log10 of the molar value.

substance_smiles=Cc1nn(-c2ccnc(Nc3ccc4c(c3)c(Cl)c(C)n4C)n2)cc1CN1CC(O)C1 endpoint=pIC50 meas_value=4.27

Give one value of pIC50 per listed compound.
1. Cc1c[nH]c2c(Nc3nc(N[C@@H]4CCCC[C@@H]4N)cc4cc[nH]c(=O)c34)cccc12
2. O=C1Nc2ccc3c(oc4ccccc43)c2C1=NNc1ccncc1
3. CCOc1ccc(Nc2nc(N)c(C(=O)c3cccc(OC)c3)s2)cc1

Outgoing:
1: 7.09; 2: 5.10; 3: 4.54

Hello, I would appreciate it if you could give pIC50 for each entry below.
1. C=CC(=O)Nc1cc(CNc2nc(Nc3ccc(N4CCOCC4)c(OC)c3)c(C(N)=O)c3nccn23)ccc1Cl
2. Cn1cc2c(Nc3nc(N[C@@H]4CCOC[C@@H]4N)cc4cc[nH]c(=O)c34)cccc2n1
3. Cc1c[nH]c2c(Nc3nc(N[C@@H]4CCCC[C@@H]4N)cc4nc[nH]c(=O)c34)cccc12

Outgoing:
[7.84, 7.74, 7.48]
